Answer each item with its documented pEC50.
- target-or-system: NL20 human bronchial epithelial cells expressing human Z-AAT (Homo sapiens, UniProt P01009, E366K)
- Sequence (P01009 25-418 E366K): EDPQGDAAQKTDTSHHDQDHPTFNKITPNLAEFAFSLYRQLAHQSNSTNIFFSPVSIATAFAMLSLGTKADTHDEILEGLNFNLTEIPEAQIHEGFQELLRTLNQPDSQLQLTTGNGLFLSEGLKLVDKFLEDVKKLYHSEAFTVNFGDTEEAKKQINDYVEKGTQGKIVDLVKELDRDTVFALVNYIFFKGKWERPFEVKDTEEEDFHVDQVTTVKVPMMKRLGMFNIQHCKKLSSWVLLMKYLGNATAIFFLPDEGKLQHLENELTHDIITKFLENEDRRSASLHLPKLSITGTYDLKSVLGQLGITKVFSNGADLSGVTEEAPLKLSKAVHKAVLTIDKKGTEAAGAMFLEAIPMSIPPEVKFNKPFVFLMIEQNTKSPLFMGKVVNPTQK
- test-method-notes: AAT Function Assay (MSD Assay NL20-SI Cell Line)
- condition: read-out: NL20 Functional EC50
pEC50: −log10 of the molar value.

Take a look at these entries with their results.
Provide pEC50 value for the following compound: Cc1cc(-c2c(C3CCOCC3)nc(OC3CCN(C(=O)C(C)O)C3)c3cc(O)ccc23)ccn1 (stereo not shown) [Compound 215] 5.52 to 5.92

Provide pEC50 value for the following compound: Cc1cc(-c2c(C(C)C)c(N[C@@H](C)C(=O)O)nc3c(O)cccc23)ccc1F [Compound 352] 5.52 to 5.92

Provide pEC50 value for the following compound: CC(C)c1nc(O[C@H]2C[C@H](C(=O)O)C2)c2c(F)c(O)ccc2c1-c1ccc(F)cc1 [Compound 9] > 5.92

Provide pEC50 value for the following compound: Cc1cc(-c2c(C(C)CO)c(NC(C)(C)C(=O)O)nc3cc(O)ccc23)ccc1F (stereo not shown) [Compound 303] 5.52 to 5.92

Provide pEC50 value for the following compound: O=C(O)C1CC(COc2nc(C3CCOCC3)c(-c3ccc(F)c(F)c3)c3cccc(O)c23)C1 (stereo not shown) [Compound 341] 5.52 to 5.92

Provide pEC50 value for the following compound: Cc1cc(-c2c(C(C)C)nc([C@H]3C[C@@H](C(=O)O)C3)c3cc(O)ccc23)ccc1F [Compound 85] > 5.92

Please report pEC50 for every entry that follows.
1. O=C(O)C(Oc1nc(C2CCOCC2)c(-c2ccc(F)cc2)c2ccc(O)cc12)C(F)(F)F (stereo not shown) [Compound 121]
2. C[C@H](CC(=O)O)Nc1nc2cc(O)ccc2c(-c2ccc(F)cc2)c1C1CCOCC1 [Compound 225]
3. OCC(CO)Oc1nc(C2CCOCC2)c(-c2ccc(F)cc2)c2ccc(O)cc12 [Compound 131]
4. CC(C)c1nc(O[C@H]2C[C@H](C(=O)O)C2)c2cc(O)ccc2c1-c1ccc(F)cc1 [Compound 37]
5. O=C(O)C1CC2(CC(Nc3nc(C4CCOCC4)c(-c4ccc(F)c(F)c4)c4cccc(O)c34)C2)C1 (stereo not shown) [Compound 344]

< 5.52
< 5.52
5.52 to 5.92
> 5.92
> 5.92

Please report pEC50 for every entry that follows.
1. Cc1cc(-c2c(C3CCOC3)nc(OCC(=O)O)c3cc(O)ccc23)ccc1F (stereo not shown) [Compound 199]
2. Cc1cc(-c2c(C(C)C)c(N[C@H](CO)C(=O)O)nc3cc(O)ccc23)ccc1F [Compound 282]
3. CC(C)c1nc(OCCC(=O)O)c2c(F)c(O)ccc2c1-c1ccc(F)cc1 [Compound 12]

1: < 5.52; 2: < 5.52; 3: > 5.92

Please report pEC50 for every entry that follows.
1. O=C(O)C1(CNc2nc3cc(O)ccc3c(-c3cccc(F)c3F)c2C2CCOCC2)CC1 [Compound 330]
2. CC(C)c1nc(OC2CC3(CCN(CC(=O)O)C3=O)C2)c2cc(O)ccc2c1-c1ccc(F)cc1 (stereo not shown) [Compound 21]

< 5.52
> 5.92

Measured values drawn from patent US12662471B2 for this set.
